System: HeLa Kyoto
protocol summary: solubility in G1/S (NP-40 vs SDS abundance) (log2 ratio); higher = more soluble
test conditions: cell cycle stage: G1/S
assay readout: solubility in G1/S (log2)

entry_sequence="MLRAGWLRGAAALALLLAARVVAAFEPITVGLAIGAASAITGYLSYNDIYCRFAECCREERPLNASALKLDLEEKLFGQHLATEVIFKALTGFRNNKNPKKPLTLSLHGWAGTGKNFVSQIVAENLHPKGLKSNFVHLFVSTLHFPHEQKIKLYQDQLQKWIRGNVSACANSVFIFDEMDKLHPGIIDAIKPFLDYYEQVDGVSYRKAIFIFLSNAGGDLITKTALDFWRAGRKREDIQLKDLEPVLSVGVFNNKHSGLWHSGLIDKNLIDYFIPFLPLEYRHVKMCVRAEMRARGSAIDEDIVTRVAEEMTFFPRDEKIYSDKGCKTVQSRLDFH [TOR1B]" measured_value=0.349

====

Tested on: HeLa Kyoto
protocol summary: melting temperature (median over replicates), in situ; higher = more thermally stable
test conditions: cell cycle stage: mitosis
assay readout: melting temperature (°C)

entry_sequence="MADTTPNGPQGAGAVQFMMTNKLDTAMWLSRLFTVYCSALFVLPLLGLHEAASFYQRALLANALTSALRLHQRLPHFQLSRAFLAQALLEDSCHYLLYSLIFVNSYPVTMSIFPVLLFSLLHAATYTKKVLDARGSNSLPLLRSVLDKLSANQQNILKFIACNEIFLMPATVFMLFSGQGSLLQPFIYYRFLTLRYSSRRNPYCRTLFNELRIVVEHIIMKPACPLFVRRLCLQSIAFISRLAPTVP [TMEM33]" assay_readout="melting temperature" u=°C measured_value=53.5
entry_sequence="MSSAPRSPTPRPRRMKKDESFLGKLGGTLARKRRAREVSDLQEEGKNAINSPMSPALVDVHPEDTQLEENEERTMIDPTSKEDPKFKELVKVLLDWINDVLVEERIIVKQLEEDLYDGQVLQKLLEKLAGCKLNVAEVTQSEIGQKQKLQTVLEAVHDLLRPRGWALRWSVDSIHGKNLVAILHLLVSLAMHFRAPIRLPEHVTVQVVVVRKREGLLHSSHISEELTTTTEMMMGRFERDAFDTLFDHAPDKLSVVKKSLITFVNKHLNKLNLEVTELETQFADGVYLVLLMGLLEDYFVPLHHFYLTPESFDQKVHNVSFAFELMLDGGLKKPKARPEDVVNLDLKSTLRVLYNLFTKYKNVE [PARVB]" assay_readout="melting temperature" u=°C measured_value=50.4
entry_sequence="MDALQLANSAFAVDLFKQLCEKEPLGNVLFSPICLSTSLSLAQVGAKGDTANEIGQVLHFENVKDVPFGFQTVTSDVNKLSSFYSLKLIKRLYVDKSLNLSTEFISSTKRPYAKELETVDFKDKLEETKGQINNSIKDLTDGHFENILADNSVNDQTKILVVNAAYFVGKWMKKFSESETKECPFRVNKTDTKPVQMMNMEATFCMGNIDSINCKIIELPFQNKHLSMFILLPKDVEDESTGLEKIEKQLNSESLSQWTNPSTMANAKVKLSIPKFKVEKMIDPKACLENLGLKHIFSEDTSDFSGMSETKGVALSNVIHKVCLEITEDGGDSIEVPGARILQHKDELNADHPFIYIIRHNKTRNIIFFGKFCSP [SERPINB5]" assay_readout="melting temperature" u=°C measured_value=52.6

====

Test system: HeLa Kyoto
protocol summary: melting temperature (median over replicates), in situ; higher = more thermally stable
test conditions: cell cycle stage: mitosis
Measured melting temperature accompanies every entry in the list below.
assay readout: melting temperature (°C)

entry_sequence="MPQYQTWEEFSRAAEKLYLADPMKARVVLKYRHSDGNLCVKVTDDLVCLVYKTDQAQDVKKIEKFHSQLMRLMVAKEARNVTMETE [SRP9]" measured_value=52.1
entry_sequence="MAARTVIIDHGSGFLKAGTAGWNEPQMVFPNIVNYLPCKENPGPSYARRRVSLGIDICHPDTFSYPIERGRILNWEGVQYLWSFVLENHRREQEVPPVIITETPLREPADRKKMLEILFELLHVPSVLLADQLQMSLYASGLLTGVVVDSGYGLTRVQPFHQGRPLPASGKTLEFAGQDLSAYLLKSLFKEDCDRRCLFQLETVAVTQMNKCYVPQNLGEALDFRERQQSALDESNTYQLPDGSRVELTPMQRVAPEMFFSPQVFEQPGPSIPRAIVESVESCEISLRPLLVSHVMACGGNTLYPGFTKRLFRELMGDHVSSTKATVWEGSNRNFSVWLGASVVAHLSTYQSEWMSREEYGEHMRM [ACTL8]" measured_value=52.4
entry_sequence="MQAGKPILYSYFRSSCSWRVRIALALKGIDYKTVPINLIKDRGQQFSKDFQALNPMKQVPTLKIDGITIHQSLAIIEYLEEMRPTPRLLPQDPKKRASVRMISDLIAGGIQPLQNLSVLKQVGEEMQLTWAQNAITCGFNALEQILQSTAGIYCVGDEVTMADLCLVPQVANAERFKVDLTPYPTISSINKRLLVLEAFQVSHPCRQPDTPTELRA [GSTZ1]" measured_value=52.9

====

Measured solubility change mitosis (log2) accompanies every entry in the list below.
System: HeLa Kyoto
protocol summary: solubility change mitosis vs G1/S (difference of NP-40 vs SDS log2 ratios) (log2 ratio difference); higher = more soluble in mitosis
assay readout: solubility change mitosis (log2)

entry_sequence="MGRTSKDKRDVYYRLAKENGWRARSAFKLLQLDKEFQLFQGVTRAVDLCAAPGSWSQVLSQKIGGQGSGHVVAVDLQAMAPLPGVVQIQGDITQLSTAKEIIQHFKGCPADLVVCDGAPDVTGLHDVDEYMQAQLLLAALNIATHVLKPGGCFVAKIFRGRDVTLLYSQLQVFFSSVLCAKPRSSRNSSIEAFAVCQGYDPPEGFIPDLSKPLLDHSYDPDFNQLDGPTRIIVPFVTCGDLSSYDSDRSYPLDLEGGSEYKYTPPTQPPISPPYQEACTLKRKGQLAKEIRPQDCPISRVDTFPQPLAAPQCHTLLAPEMEDNEMSCSP [FTSJ1]" assay_readout="solubility change mitosis (log2)" measured_value=0.07
entry_sequence="MPVWGGGNKCGACGRTVYHAEEVQCDGRSFHRCCFLCMVCRKNLDSTTVAIHDEEIYCKSCYGKKYGPKGYGYGQGAGTLNMDRGERLGIKPESVQPHRPTTNPNTSKFAQKYGGAEKCSRCGDSVYAAEKIIGAGKPWHKNCFRCAKCGKSLESTTLTEKEGEIYCKGCYAKNFGPKGFGYGQGAGALVHAQ [CSRP2]" assay_readout="solubility change mitosis (log2)" measured_value=-0.0558
entry_sequence="MSDGDYDYLIKFLALGDSGVGKTSVLYQYTDGKFNSKFITTVGIDFREKRVVYRASGPDGATGRGQRIHLQLWDTAGQERFRSLTTAFFRDAMGFLLLFDLTNEQSFLNVRNWISQLQMHAYCENPDIVLCGNKSDLEDQRVVKEEEAIALAEKYGIPYFETSAANGTNISQAIEMLLDLIMKRMERCVDKSWIPEGVVRSNGHASTDQLSEEKEKGACGC [RAB27A]" assay_readout="solubility change mitosis (log2)" measured_value=-0.0891

====

Test system: HeLa Kyoto
protocol summary: solubility in G1/S (NP-40 vs SDS abundance) (log2 ratio); higher = more soluble
test conditions: cell cycle stage: G1/S
assay readout: solubility in G1/S (log2)

entry_sequence="MKAGATSMWASCCGLLNEVMGTGAVRGQQSAFAGATGPFRFTPNPEFSTYPPAATEGPNIVCKACGLSFSVFRKKHVCCDCKKDFCSVCSVLQENLRRCSTCHLLQETAFQRPQLMRLKVKDLRQYLILRNIPIDTCREKEDLVDLVLCHHGLGSEDDMDTSSLNSSRSQTSSFFTRSFFSNYTAPSATMSSFQGELMDGDQTSRSGVPAQVQSEITSANTEDDDDDDDEDDDDEEENAEDRNPGLSKERVRASLSDLSSLDDVEGMSVRQLKEILARNFVNYSGCCEKWELVEKVNRLYKENEENQKSYGERLQLQDEEDDSLCRICMDAVIDCVLLECGHMVTCTKCGKRMSECPICRQYVVRAVHVFKS [RNF34]" measured_value=0.0303

====

System: HeLa Kyoto
protocol summary: melting temperature (median over replicates), in situ; higher = more thermally stable
test conditions: cell cycle stage: G1/S
assay readout: melting temperature

entry_sequence="MSMEDYDFLFKIVLIGNAGVGKTCLVRRFTQGLFPPGQGATIGVDFMIKTVEINGEKVKLQIWDTAGQERFRSITQSYYRSANALILTYDITCEESFRCLPEWLREIEQYASNKVITVLVGNKIDLAERREVSQQRAEEFSEAQDMYYLETSAKESDNVEKLFLDLACRLISEARQNTLVNNVSSPLPGEGKSISYLTCCNFN [RAB30]" assay_readout="melting temperature" measured_value="51.3 °C"
entry_sequence="MPKVKRSRKAPPDGWELIEPTLDELDQKMREAETEPHEGKRKVESLWPIFRIHHQKTRYIFDLFYKRKAISRELYEYCIKEGYADKNLIAKWKKQGYENLCCLRCIQTRDTNFGTNCICRVPKSKLEVGRIIECTHCGCRGCSG [BUD31]" assay_readout="melting temperature" measured_value="51.1 °C"
